Tested on: NCI/ADR-RES
Assay: NCI tumour cell line growth inhibition, 48 h
Active and inactive are the calls of the source. No stated cut-off is given here; in the data, active = GI50 up to about 1.1 µM and inactive = higher.
Endpoint name: GI50

Molecule	GI50
CCOCC(=O)N(C)c1cccc2c3c(n(C)c12)CCCCC3	> 100 µM (inactive)

Lookup: Fill in the blank: the reported GI50 of CC(=O)OC1=CC2=CC[C@H]3[C@@H]4CCC(=O)[C@@]4(C)CC(=O)[C@]3(S)[C@@]2(C)CC1 is ____.
Found: 75.7 µM (inactive)

Lookup: Record: C/C(=N\Nc1nc2ccccc2o1)c1cc2ccccc2cn1
Found: < 0.01 µM (active)

Lookup: And the next one, Cc1n[n+]([O-])c(C)cc1[N+](=O)[O-] ?
Found: 20.6 µM (inactive)

Lookup: Same lookup for NC(C(=O)O)C(N)C(=O)O (centres undefined) , please.
Found: > 100 µM (inactive)

Lookup: And what about the molecule C/C(=C/C(=O)Nn1c(Cc2ccccc2)n[nH]c1=O)C(=O)O ?
Found: > 100 µM (inactive)

Lookup: Moving on to the next molecule: CCn1c(=O)ccc2ccc(N(CCO)CCO)nc21
Found: > 100 µM (inactive)

Lookup: And for C/C(O)=C/C(=O)c1[nH]c(C(=O)O)cc1C1CCN(Cc2ccccc2)C1=O (centres undefined) ?
Found: 12 µM (inactive)

Lookup: Also COC[C@H]1OC(=O)c2coc3c2[C@@]1(C)C1=C(C3=O)[C@@H]2CCC(=O)[C@@]2(C)C[C@H]1OC(C)=O , if possible.
Found: 38.8 µM (inactive)

Lookup: Also check c1cc2ccc3cc4ncccc4c4ccc(c1)c2c34
Found: 31.6 µM (inactive)

Lookup: Do the same for O=C(O)c1cnccc1-c1cc(=O)[nH]n1-c1ccccc1 please
Found: 27.6 µM (inactive)

Lookup: Now the molecule Fc1nc(-c2c3ccccc3c3sc4ccccc4n23)nc(N2CCOCCOCCOCCOCC2)n1
Found: 56.8 µM (inactive)

Lookup: One more molecule: Cc1cc(N(CCC#N)CCC#N)ccc1/C=C(\NC(=O)/C=C/c1ccccc1)C(=O)NN
Found: > 100 µM (inactive)

Lookup: Proceed to COC(=O)C1(C(=O)OC)CC2=C(S(=O)(=O)c3ccccc3)C[C@H](C#N)[C@H]2C1
Found: > 100 µM (inactive)

---

Tested on: SK-MEL-5
Experiment: NCI tumour cell line growth inhibition, 48 h
Activity calls are given as the source filed them. Cut-off read from the data, not from the text of the source: active = GI50 up to about 1.1 µM and inactive = higher.
Endpoint name: GI50

The following compounds have reported results that may help.
Compound	GI50
COc1ccc2oc(S(=O)(=O)N3CC(CCl)c4ccc([N+](=O)[O-])cc43)cc2c1 (stereo not given)	0.0752 µM (active)
N#CC1(Cc2ccccc2[N+](=O)[O-])c2ccccc2C2C(N1C(=O)c1ccccc1)C2(Cl)Cl (stereo not given)	> 100 µM (inactive)
CC(C)/C(Cl)=N\OC(=O)Nc1ccccc1F	14.5 µM (inactive)
CC1=CC2=C(C=O)C(=O)[C@](C)(O)[C@@H](O)C2=CO1	24.6 µM (inactive)

Lookup: Would you mind telling me what GI50 value was observed for S=C(Nc1ccc(Cl)cc1)c1ccc(CN2CCCCC2)s1 ?
Found: 3.08 µM (inactive)

---

System: NCI-H522
Test: NCI tumour cell line growth inhibition, 48 h
The source made the active and inactive calls. Rule as the data show it: active = GI50 up to about 1.1 µM and inactive = higher.
Reported GI50 by item:

Answered examples (6):
Molecule	Test target	Endpoint name	Recorded measurement
CCn1c(=O)ccc2ccc(N(CCO)CCO)nc21	NCI-H522	GI50	> 100 µM (inactive)
O[C@H]1[C@H](O)[C@@H](O)[C@@]2(O)C[C@@H](O)[C@@H]1N2	NCI-H522	GI50	> 100 µM (inactive)
C1CSC2=C(S1)SC1=C(S2)SC(=C2SC3=C(SC4=C(SCCS4)S3)S2)S1	NCI-H522	GI50	> 100 µM (inactive)
COc1ccc(C(O)c2ccccn2)cc1 (stereo unspecified)	NCI-H522	GI50	> 100 µM (inactive)
Cc1ccc(C2=NN=C3C(c4ccccc4)=Nc4ccccc4N3C2)cc1	NCI-H522	GI50	2.92 µM (inactive)
CCOP(C)(=O)C(N)Cc1ccc(OC)c(OC)c1 (stereo unspecified)	NCI-H522	GI50	> 100 µM (inactive)

Lookup: // GI50 lookup, key: CCCCCNC(=O)CCCCCCCCCCCNC(=O)CCCCCCCCCCN1C=CC(=CC=C2C=CC(=O)C=C2)C=C1
Found: 32.4 µM (inactive)

Lookup: Follow-up item: COc1ccc2oc(S(=O)(=O)N3CC(CCl)c4ccc([N+](=O)[O-])cc43)cc2c1 (stereo unspecified)
Found: 0.0292 µM (active)

Lookup: Another molecule: C/C(=N\N)C(CN1CCCCC1)C(c1ccccc1)c1c(O)c2ccccc2oc1=O (stereo unspecified)
Found: > 100 µM (inactive)

Lookup: Also need CCOC(=O)c1ccc(-c2cc(C)[nH]n2)[nH]1 , thanks.
Found: > 100 µM (inactive)

Lookup: Check COc1ccccc1NC(=O)CC(=O)N1N=C(c2ccccc2)C(/N=N/c2ccc(Cl)cc2)C1=O (stereo unspecified) too.
Found: 32.1 µM (inactive)

Lookup: What about COc1ccc(/C=C2/C(=O)N(/C=C3\C(=O)Oc4ccccc4C3=O)/C(=N/C(C)=O)N2C)cc1OC ?
Found: > 100 µM (inactive)

Lookup: Follow-up item: O=C(O)C(Cc1ccccc1-c1ccccc1)C(=O)O
Found: > 100 µM (inactive)

Lookup: Input Nc1nc(N)c2nnn(C[C@H]3CC[C@@H](CO)C3)c2n1
Found: > 100 µM (inactive)

Lookup: Further, for O=[N+]([O-])c1ccc(O)c(/C=N/CC2CCCN3CCCCC23)c1 (stereo unspecified) ?
Found: 26 µM (inactive)

Lookup: Now consider CN(C)CC1CCC(CN(C)C)C1=NO (stereo unspecified) and answer again.
Found: > 100 µM (inactive)

Lookup: # iterate: CCOC(=O)C1C(=O)CC(O)(OCC)C(C(=O)OCC)C1c1ccc(OC)cc1 (stereo unspecified)
Found: > 100 µM (inactive)

Lookup: Can you handle CCCC/C=C1/CCC(CN(C)C)C1=O (stereo unspecified) next?
Found: 0.656 µM (active)

Lookup: Param item: O=[N+]([O-])c1ccc(/C(Cl)=C/c2ccc(/C=C(\Cl)c3ccc([N+](=O)[O-])cc3[N+](=O)[O-])cc2)c([N+](=O)[O-])c1
Found: > 100 µM (inactive)

Lookup: What do we get for C[C@H]1C(=O)c2c(cc(O)c(C3OC(CO)C(O)C(O)C3O)c2O)OC1c1ccc(O)c(O)c1 (stereo partly specified) ?
Found: > 100 µM (inactive)

Lookup: CC1CCCc2c(CC3CC(=O)NC(=O)C3)n[nH]c21 (stereo unspecified) , same question.
Found: > 100 µM (inactive)
